Data provenance is paper PMC11501026.

# PROTOCOL: in situ brain/choroid plexus perfusion: CNS uptake of [^3H]-arginine, [^3H]-ADMA and [^14C]-sucrose (multiple-time and single-time uptake analysis)
# MEASUREMENT CONDITIONS: male, BALB/c, mouse, pons, Difference (ADMA minus Sucrose), 20 mins, 5ml/min; mean
Structures can show the parent of a compound that is named as a salt.
RECORDED METRIC: Kp at 20 min, 62.5 nM

Problem: Fill blank: measured Kp at 20 min, 62.5 nM of the molecule CN(C)C(N)=NCCC[C@H](N)C(=O)O [ADMA, N^G,N^G-dimethylarginine dihydrochloride] is ____.
Result: 0.306
